System: H661 NSCLC cells
Test: cells
Conditions: read-out: LC50; H661, 2 day exposure
What CC50 was measured for each of the following?

CC(=O)NCC(=O)O.CC(=O)NCC(=O)O.N=C(N)c1ccc(N=NNc2ccc(C(=N)N)cc2)cc1 [Berenil, berenil] ... > 4000 µM

Can you share its CC50? I mean this compound: Cn1cc(NC(=O)c2cc(NC(=O)c3cc(NC=O)cn3C)cn2C)cc1C(=O)NCCC(=N)N [Distamycin A, distamycin A]
> 2000 µM

###

Test system: MCF-7 breast cancer cells
Settings: read-out: LC50; MCF-7, 2 day exposure
quantity_measured: CC50
Answer as a quantity: numeral, then unit.

Cn1cc(NC(=O)c2cc(NC(=O)c3cc(NC=O)cn3C)cn2C)cc1C(=O)NCCC(=N)N ... 1520 µM

# next compound below
Can you share its CC50? I mean this compound: `CC(=O)NCC(=O)O.CC(=O)NCC(=O)O.N=C(N)c1ccc(N=NNc2ccc(C(=N)N)cc2)cc1`
3000 µM

###

Tested on: H460 NSCLC cells
Experiment: cells
Details: read-out: LC50; H460, 2 day exposure
What CC50 was measured for each of the following?

CC(=O)NCC(=O)O.CC(=O)NCC(=O)O.N=C(N)c1ccc(N=NNc2ccc(C(=N)N)cc2)cc1 [Berenil, berenil] ... > 4000 µM

# next compound below
Can you share its CC50? I mean this compound: Cn1cc(NC(=O)c2cc(NC(=O)c3cc(NC=O)cn3C)cn2C)cc1C(=O)NCCC(=N)N [Distamycin A, distamycin A]
> 2000 µM

###

Tested on: HT29 colon cancer cells
Conditions: read-out: LC50; HT29, 2 day exposure
quantity_measured: CC50

Cn1cc(NC(=O)c2cc(NC(=O)c3cc(NC=O)cn3C)cn2C)cc1C(=O)NCCC(=N)N [Distamycin A, distamycin A] ... > 2000 µM

Can you share its CC50? I mean this compound: CC(=O)NCC(=O)O.CC(=O)NCC(=O)O.N=C(N)c1ccc(N=NNc2ccc(C(=N)N)cc2)cc1 [Berenil, berenil]
> 4000 µM
